The reported measurements were obtained from patent US7494984B2.

melting point: recorded values

Solved cases below.
> print(dat)
                             compoundsmiles   endpointname  valueobserved
1  CCCCN1CCn2c1nc(C(=O)NCc1ccc(F)cc1C(=O)NC)c(O)c2=O  melting point  175 to 177 °C
2  CNC(=O)c1cc(F)ccc1CNC(=O)c1nc2n(c(=O)c1O)CCN2C(C)C  melting point  205 °C (dec.)
3  O=C(NCc1ccc(F)cc1-n1cncn1)c1nc2n(c(=O)c1O)CCN2Cc1ccccc1  melting point  242 °C (dec.)
4  CNC(=O)c1cc(F)ccc1CNC(=O)c1nc2n(c(=O)c1O)CCN2Cc1ccccc1  melting point  206 °C (dec.)
5  Cc1cc(CNC(=O)c2nc3n(c(=O)c2O)CCN3C)ccc1F  melting point  187 to 189 °C

Let's switch to this molecule now.
What measured melting point goes with O=C(NCc1ccc(F)cc1-n1cncn1)c1nc2n(c(=O)c1O)CCN2CCO ?
220 to 222 °C

====

IC50: recorded values
# assayedTarget: HIV-integrase (Human immunodeficiency virus type 1 group M subtype B)
# Construct: Recombinant integrase (0.26 ng) was incubated with the beads
# assayRemarks: HIV-Integrase Inhibition Activity (SPA strand transfer assay)
# experimentalParameters: recombinant integrase, biotin labeled substrate DNA on SPA beads, P33 labeled target DNA; read-out: Activity (IC50 class, HIV-integrase inhibition)
# Protocol: HIV-Integrase Inhibition Activity. To evaluate in-vitro activity against HIV-integrase, 5 pmole of biotin labeled substrate DNA was bound to 100 μg of Streptavidin coated PVT SPA beads (Amersham Pharmacia Biotech). Recombinant integrase (0.26 ng) was incubated with the beads for 90 min at 37° C. […] Samples were counted in TopCountNXT (Packard) and the CPM was used as a measure of integration. […]

Solved cases below.
> print(dat)
                             compoundsmiles  valueobserved
1  CC(C)N1CCn2c1nc(C(=O)NCc1ccc(F)cc1S(=O)(=O)N(C)C)c(O)c2=O     5 to 10 nM
2  CCCCN1CCn2c1nc(C(=O)NCc1ccc(F)cc1-n1cncn1)c(O)c2=O    10 to 30 nM
3  O=C(NCc1ccc(F)cc1-n1cncn1)c1nc2n(c(=O)c1O)CCN2CCO    10 to 30 nM
4  CNC(=O)c1cc(F)ccc1CNC(=O)c1nc2n(c(=O)c1O)CCN2CCOC    10 to 30 nM
5  Cc1cc(CNC(=O)c2nc3n(c(=O)c2O)CCN3C)ccc1F    10 to 30 nM

Request body: readout IC50, system HIV-integrase (Human immunodeficiency virus type 1 group M subtype B), query CNC(=O)c1cc(F)ccc1CNC(=O)c1nc2n(c(=O)c1O)CCN2C . Return the value.
10 to 30 nM

Request body: readout IC50, system HIV-integrase (Human immunodeficiency virus type 1 group M subtype B), query CNC(=O)c1cc(F)ccc1CNC(=O)c1nc2n(c(=O)c1O)CCN2C(C)C . Return the value.
10 to 30 nM

Request body: readout IC50, system HIV-integrase (Human immunodeficiency virus type 1 group M subtype B), query O=C(NCc1ccc(F)cc1N1CCCC1=O)c1nc2n(c(=O)c1O)CCN2c1ccccc1 . Return the value.
10 to 30 nM

Request body: readout IC50, system HIV-integrase (Human immunodeficiency virus type 1 group M subtype B), query CCCCN1CCn2c1nc(C(=O)NCc1ccc(F)cc1-n1cnc(C)n1)c(O)c2=O . Return the value.
5 to 10 nM

Request body: readout IC50, system HIV-integrase (Human immunodeficiency virus type 1 group M subtype B), query CC(C)N1CCn2c1nc(C(=O)NCc1ccc(F)cc1-n1cncn1)c(O)c2=O . Return the value.
10 to 30 nM

Request body: readout IC50, system HIV-integrase (Human immunodeficiency virus type 1 group M subtype B), query CCCCN1CCn2c1nc(C(=O)NCc1ccc(F)cc1)c(O)c2=O . Return the value.
5 to 10 nM

Request body: readout IC50, system HIV-integrase (Human immunodeficiency virus type 1 group M subtype B), query CCCCN1CCn2c1nc(C(=O)NCc1ccc(F)c(C)c1)c(O)c2=O . Return the value.
10 to 30 nM

Request body: readout IC50, system HIV-integrase (Human immunodeficiency virus type 1 group M subtype B), query O=C(NCc1ccc(F)cc1)c1nc2n(c(=O)c1O)CCN2CCO . Return the value.
10 to 30 nM

Request body: readout IC50, system HIV-integrase (Human immunodeficiency virus type 1 group M subtype B), query COCCN1CCn2c1nc(C(=O)NCc1ccc(F)cc1-n1cnc(C)n1)c(O)c2=O . Return the value.
> 30 nM

====

# assayedTarget: HIV-integrase (Human immunodeficiency virus type 1 group M subtype B, UniProt P12497)
# Construct: Recombinant integrase (0.26 ng) was incubated with the beads
# assayRemarks: HIV-Integrase Inhibition Activity (SPA strand transfer assay)
# experimentalParameters: recombinant integrase, biotin labeled substrate DNA on SPA beads, P33 labeled target DNA; read-out: Activity (IC50 class, HIV-integrase inhibition)
pIC50: −log10 of the molar value.
endpointName: pIC50

Solved cases below.
> print(dat)
                             compoundsmiles  valueobserved
1  Cc1cc(CNC(=O)c2nc3n(c(=O)c2O)CCN3C2CCCCC2)ccc1F   8.00 to 8.30
2  COCCN1CCn2c1nc(C(=O)NCc1ccc(F)cc1S(=O)(=O)N(C)C)c(O)c2=O         < 7.52
3  Cc1cc(CNC(=O)c2nc3n(c(=O)c2O)CCN3C(C)C)ccc1F   7.52 to 8.00

What measured pIC50 goes with CN1CCn2c1nc(C(=O)NCc1ccc(F)cc1)c(O)c2=O ?
7.52 to 8.00

What measured pIC50 goes with Cc1ncnn1-c1cc(F)ccc1CNC(=O)c1nc2n(c(=O)c1O)CCN2c1ccccc1 ?
7.52 to 8.00

What measured pIC50 goes with COCCN1CCn2c1nc(C(=O)NCc1ccc(F)cc1)c(O)c2=O ?
7.52 to 8.00

What measured pIC50 goes with O=C(NCc1ccc(F)cc1N1CCC1=O)c1nc2n(c(=O)c1O)CCN2c1ccccc1 ?
8.00 to 8.30

What measured pIC50 goes with O=C(NCc1ccc(F)cc1)c1nc2n(c(=O)c1O)CCN2c1ccccc1 ?
8.00 to 8.30

What measured pIC50 goes with O=C(NCc1ccc(F)cc1)c1nc2n(c(=O)c1O)CCN2C1CCCCC1 ?
8.00 to 8.30

What measured pIC50 goes with Cc1ncn(-c2cc(F)ccc2CNC(=O)c2nc3n(c(=O)c2O)CCN3C(C)C)n1 ?
7.52 to 8.00

What measured pIC50 goes with O=C(NCc1ccc(F)cc1-n1cncn1)c1nc2n(c(=O)c1O)CCN2Cc1ccccc1 ?
7.52 to 8.00

What measured pIC50 goes with COCCN1CCn2c1nc(C(=O)NCc1ccc(F)cc1-n1cncn1)c(O)c2=O ?
7.52 to 8.00

What measured pIC50 goes with Cc1ncn(-c2cc(F)ccc2CNC(=O)c2nc3n(c(=O)c2O)CCN3c2ccccc2)n1 ?
8.00 to 8.30

What measured pIC50 goes with CN(C)S(=O)(=O)c1cc(F)ccc1CNC(=O)c1nc2n(c(=O)c1O)CCN2c1ccccc1 ?
7.52 to 8.00

What measured pIC50 goes with CNC(=O)c1cc(F)ccc1CNC(=O)c1nc2n(c(=O)c1O)CCN2c1ccccc1 ?
7.52 to 8.00

What measured pIC50 goes with CNC(=O)c1cc(F)ccc1CNC(=O)c1nc2n(c(=O)c1O)CCN2Cc1ccccc1 ?
7.52 to 8.00
